Where these numbers come from: paper PMC10718076

assay: Metabolic stability in human liver microsomes; settings: both, human liver microsomes (pooled), pH 7.4, % Remaining, Mean of 2, 40 min, Table S9, 4st batch
EXPERIMENTAL ENDPOINT: remaining at 40 min, 2 µM (%)
Respond numerically; units are % and should not be typed.

query: If you can, please state the reported remaining at 40 min, 2 µM value of Cn1cc(C(=O)Nc2ccc(F)cc2-c2ccc(Cl)c(Cl)c2)c(C(F)F)n1 [Bixafen, bixafen] .
result: 87

* * *

assay: Kinetic solubility in phosphate-buffered saline, pH 7.4; format: physicochemical; settings: phosphate-buffered saline, 25 °C, pH 7.4, aqueous buffer, kinetic from dmso stock, Table S4, 4nd batch; read-out: PBS solubility, pH 7.4, Incubation 1
EXPERIMENTAL ENDPOINT: solubility at 2 h
Note: state the figure and append the unit.

query: If you can, please state the reported solubility at 2 h value of `Cn1cc(C(=O)Nc2ccc(F)cc2-c2ccc(Cl)c(Cl)c2)c(C(F)F)n1` .
result: 29 µM

* * *

assay: Kinetic solubility in phosphate-buffered saline, pH 7.4; format: physicochemical; conditions: 25 °C, pH 7.4, aqueous buffer, kinetic from dmso stock, PBS solubility, pH 7.4, Incubation 1
EXPERIMENTAL ENDPOINT: solubility at 2 h (µM)
Respond numerically; units are µM and should not be typed.

Here's what some known entries look like.
O=C(NC1CCN(CCCCC2(C(=O)NCC(F)(F)F)c3ccccc3-c3ccccc32)CC1)C1CC2CC1(c1ccc(C(F)(F)F)cc1)C2 (stereo not shown)	18
Cc1nccn1CC1CCc2c(c3ccccc3n2C)C1=O (stereo not shown) [Ondansetron, reference compound]	126
Cc1nc2c([nH]1)CCN(C(=O)c1ccc(NC(=O)C3CC4CC3(c3ccccc3)C4)cc1)c1ccccc1-2 (stereo not shown)	15

We now examine a further compound.
query: If you can, please state the reported solubility at 2 h value of `Cc1nc2c([nH]1)-c1ccccc1N(C(=O)c1ccc(NC(=O)c3ccccc3-c3ccccc3)cc1)CC2` .
result: 4

* * *

# remaining at 25 min, 2 µM per record follows
assay: Metabolic stability in human liver microsomes; conditions: both, liver microsomes (pooled), pH 7.4, % Remaining, Mean of 2, 25 min, Table S6, 1st batch
Respond numerically; units are % and should not be typed.

Here's what some known entries look like.
Cn1cc(C(=O)NC2CC3CC2(c2cc(F)c(F)c(F)c2)C3)c(C(F)F)n1 (centres unmarked) [Compound 30]	43
Cc1nc2c([nH]1)CCN(C(=O)c1ccc(NC(=O)C3CC4CC3(c3ccccc3)C4)cc1)c1ccccc1-2 (centres unmarked) [Compound 26]	83
Cn1cc(C(=O)NC2CC3CC2(c2ccc(Cl)c(Cl)c2)C3)c(C(F)F)n1 (centres unmarked) [Compound 29]	67

query: If you can, please state the reported remaining at 25 min, 2 µM value of O=C(NC1CCN(CCCCC2(C(=O)NCC(F)(F)F)c3ccccc3-c3ccccc32)CC1)C1CC2CC1(c1ccc(C(F)(F)F)cc1)C2 (centres unmarked) [Compound 27] .
result: 9

query: If you can, please state the reported remaining at 25 min, 2 µM value of O=C(NC1CC2CC1(c1ccc(Cl)cc1)C2)c1cccnc1Cl (centres unmarked) [Compound 28] .
result: 72

* * *

experiment: Metabolic stability in human liver microsomes; conditions: both, human liver microsomes (pooled), pH 7.4, kel, Table S9, 4st batch, * approximate due to high stability
EXPERIMENTAL ENDPOINT: k el at 2 μM

query: If you can, please state the reported k el at 2 μM value of Cn1cc(C(=O)Nc2ccc(F)cc2-c2ccc(Cl)c(Cl)c2)c(C(F)F)n1 [Bixafen, bixafen] .
result: ~6.67e-05 s⁻¹

* * *

assay: Metabolic stability in human liver microsomes; settings: both, liver microsomes (pooled), pH 7.4, % Remaining, Mean of 2, 40 min, Table S7, 2st batch
Structures can show the parent of a compound that is named as a salt.
EXPERIMENTAL ENDPOINT: remaining at 40 min, 2 µM (%)
Respond numerically; units are % and should not be typed.

query: If you can, please state the reported remaining at 40 min, 2 µM value of CC(C)NCC(O)COc1cccc2ccccc12 (racemic) [Propranolol, (+,-) Propranolol hydrochloride] .
result: 58

* * *

# k el at 2 µM per record follows
assay: in vitro; conditions: both, human, pH 7.4, kel
Respond numerically; units are s⁻¹ and should not be typed.

O=C(O)Cc1ccccc1Nc1c(Cl)cccc1Cl	0.0012

query: If you can, please state the reported k el at 2 µM value of `Cc1nc2c([nH]1)-c1ccccc1N(C(=O)c1ccc(NC(=O)c3ccccc3-c3ccccc3)cc1)CC2` .
result: 0.000217

* * *

assay: Kinetic solubility in phosphate-buffered saline, pH 7.4; format: physicochemical; conditions: 25 °C, pH 7.4, aqueous buffer, kinetic from dmso stock, PBS solubility, pH 7.4, Incubation 2
# solubility at 2 h per record follows
Respond numerically; units are µM and should not be typed.

query: If you can, please state the reported solubility at 2 h value of Cc1nc2c([nH]1)CCN(C(=O)c1ccc(NC(=O)C3CC4CC3(c3ccccc3)C4)cc1)c1ccccc1-2 (stereo not shown) .
result: 14

query: If you can, please state the reported solubility at 2 h value of O=C(NC1CCN(CCCCC2(C(=O)NCC(F)(F)F)c3ccccc3-c3ccccc32)CC1)C1CC2CC1(c1ccc(C(F)(F)F)cc1)C2 (stereo not shown) .
result: 19

query: If you can, please state the reported solubility at 2 h value of `Cc1nc2c([nH]1)-c1ccccc1N(C(=O)c1ccc(NC(=O)c3ccccc3-c3ccccc3)cc1)CC2` .
result: 7

query: If you can, please state the reported solubility at 2 h value of Cc1nccn1CC1CCc2c(c3ccccc3n2C)C1=O (stereo not shown) [Ondansetron, reference compound] .
result: 126

* * *

conditions: Table S5, injection 3, octanol/PBS pH 7.4
# D per record follows
# answer = number (no unit)

Cc1nc2c([nH]1)-c1ccccc1N(C(=O)c1ccc(NC(=O)c3ccccc3-c3ccccc3)cc1)CC2	1.99E+04

query: If you can, please state the reported D value of `O=C(Nc1ccccc1-c1ccc(Cl)cc1)c1cccnc1Cl` .
result: 4.07E+03

query: If you can, please state the reported D value of O=C(NC1CC2CC1(c1ccc(Cl)cc1)C2)c1cccnc1Cl (stereo not shown) .
result: 3.49E+03

query: If you can, please state the reported D value of Cn1cc(C(=O)NC2CC3CC2(c2cc(F)c(F)c(F)c2)C3)c(C(F)F)n1 (stereo not shown) .
result: 4.44E+03

query: If you can, please state the reported D value of `Cn1cc(C(=O)Nc2ccc(F)cc2-c2ccc(Cl)c(Cl)c2)c(C(F)F)n1` .
result: 2.30E+04

* * *

# D per record follows
conditions: Table S5, injection 1, octanol/PBS pH 7.4
# answer = number (no unit)

Here's what some known entries look like.
Cn1cc(C(=O)Nc2ccc(F)cc2-c2ccc(Cl)c(Cl)c2)c(C(F)F)n1 [Bixafen, bixafen]	1.23E+04
Cn1cc(C(=O)NC2CC3CC2(c2ccc(Cl)c(Cl)c2)C3)c(C(F)F)n1 (stereo not drawn) [Compound 29]	1.26E+04

We now examine a further molecule.
query: If you can, please state the reported D value of Cc1nc2c([nH]1)CCN(C(=O)c1ccc(NC(=O)C3CC4CC3(c3ccccc3)C4)cc1)c1ccccc1-2 (stereo not drawn) [Compound 26] .
result: 9.55E+03

* * *

assay: Kinetic solubility in phosphate-buffered saline, pH 7.4; format: physicochemical; details: phosphate-buffered saline, 25 °C, pH 7.4, aqueous buffer, kinetic from dmso stock, Table S4, 4nd batch; read-out: PBS solubility, pH 7.4, Incubation 2
EXPERIMENTAL ENDPOINT: solubility at 2 h (µM)
Respond numerically; units are µM and should not be typed.

query: If you can, please state the reported solubility at 2 h value of Cn1cc(C(=O)Nc2ccc(F)cc2-c2ccc(Cl)c(Cl)c2)c(C(F)F)n1 [Bixafen, bixafen] .
result: 31

* * *

test: physchem; conditions: pH 7.4, log D (7.4)
EXPERIMENTAL ENDPOINT: logD at 1 h
# answer = number (no unit)

query: If you can, please state the reported logD at 1 h value of O=C(NC1CCN(CCCCC2(C(=O)NCC(F)(F)F)c3ccccc3-c3ccccc32)CC1)C1CC2CC1(c1ccc(C(F)(F)F)cc1)C2 (stereo not shown) .
result: 3.9

* * *

assay: Metabolic stability in human liver microsomes; details: both, liver microsomes (pooled), pH 7.4, % Remaining, Mean of 2, 15 min, Table S6, 1st batch
# remaining at […], 2 µM per record follows
Respond numerically; units are % and should not be typed.

Here's what some known entries look like.
O=C(NC1CC2CC1(c1ccc(Cl)cc1)C2)c1cccnc1Cl (centres unmarked)	82
O=C(NC1CCN(CCCCC2(C(=O)NCC(F)(F)F)c3ccccc3-c3ccccc32)CC1)C1CC2CC1(c1ccc(C(F)(F)F)cc1)C2 (centres unmarked)	20
Cn1cc(C(=O)NC2CC3CC2(c2ccc(Cl)c(Cl)c2)C3)c(C(F)F)n1 (centres unmarked)	73
Cc1nc2c([nH]1)CCN(C(=O)c1ccc(NC(=O)C3CC4CC3(c3ccccc3)C4)cc1)c1ccccc1-2 (centres unmarked)	81

We now examine a further compound.
query: If you can, please state the reported remaining at […], 2 µM value of Cn1cc(C(=O)NC2CC3CC2(c2cc(F)c(F)c(F)c2)C3)c(C(F)F)n1 (centres unmarked) .
result: 53
